- assayed_system: T1, biotinylated human DLL3 protein expressed as a human IgG1 fusion protein (human, UniProt Q9NYJ7 27-492, limits assumed, biotinylated)
- T1 sequence: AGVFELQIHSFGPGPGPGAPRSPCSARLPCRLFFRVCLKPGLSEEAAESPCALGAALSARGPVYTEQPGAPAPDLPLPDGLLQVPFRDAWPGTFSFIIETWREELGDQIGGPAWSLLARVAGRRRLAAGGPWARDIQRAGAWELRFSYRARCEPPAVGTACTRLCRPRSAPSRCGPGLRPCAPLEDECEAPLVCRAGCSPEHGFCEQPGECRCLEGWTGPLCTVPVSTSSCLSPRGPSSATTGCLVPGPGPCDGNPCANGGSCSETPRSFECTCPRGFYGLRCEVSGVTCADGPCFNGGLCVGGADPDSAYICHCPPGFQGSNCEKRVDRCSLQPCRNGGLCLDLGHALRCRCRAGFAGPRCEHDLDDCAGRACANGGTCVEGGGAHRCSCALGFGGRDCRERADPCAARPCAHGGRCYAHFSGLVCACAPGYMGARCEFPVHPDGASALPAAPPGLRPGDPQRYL
- assay_details: Octet BLI, single 50 nM
Measured Kd accompanies every entry in the list below.
readout_name: Kd (nM)

INSERT INTO assay_data (binder, readout_name, result) VALUES
  ('2F02 anti-DLL3 trispecific protein (other, not shown: linker 1808, anti-albumin sdAb, linker 1808, anti-CD3 fragment, His6 1819) EVQLVESGGGLVQPGGSLTLSCVASGSTSSINAVGWYRRAPGKQRELVAGISSDGSKVYAGSVKGRFTISRDNAKNSVYLQMNSLRAEDTAVYYCYYFRTVSGSYMRYWGQGTLVTVSS', 'Kd', 9.6),
  ('2C09 anti-DLL3 trispecific protein (other, not shown: linker 1808, anti-albumin sdAb, linker 1808, anti-CD3 fragment, His6 1819) EVQLVESGGGLVQPGGSLTLSCVPSGSTSNINAMGWYRRAPGKQRELPAGISSDGTKIYADSAKVPFTITRDNAKNSVYLQMNSLRAEDTAVYYCYYFRTVSGTSMRYWGQGTLVTVSS', 'Kd', 6.4),
  ('1E04 anti-DLL3 trispecific protein (other, not shown: linker 1808, anti-albumin sdAb, linker 1808, anti-CD3 fragment, His6 1819) EVQLVESGGGLVQPGGSLTLSCVASGSTSRINGMGWYRRAPGKQRELPAGISSDGSKAYADSVKGRFTISRDNAKNSVYLQMNSLRAEDTAVYYCYYFRTASGTSMRYWGQGTLVTVSS', 'Kd', 8.1),
  ('4C08 anti-DLL3 trispecific protein (other, not shown: linker 1808, anti-albumin sdAb, linker 1808, anti-CD3 fragment, His6 1819) EVQLVESGGGLVQPGGSLTLSCVASGSQVSFLSMAWYRQAPGKKRELVAGISADGSTDYFDSVKGRFTISRDNAKNSVYLQMNSLRAEDTAVYYCYAYRWTRRYTYWGQGTLVTVSS', 'Kd', 16),
  ('4C07 anti-DLL3 trispecific protein (other, not shown: linker 1808, anti-albumin sdAb, linker 1808, anti-CD3 fragment, His6 1819) EVQLVESGGGLVQPGGSLTLSCAASGSKVSFLSMAWYRQAPGKKRELVAGISADGSKDYIDSVKGRFTISRDNAKNSVYLQMNSLRAEDTAVYYCYAYRWTTRLTYWGQGTLVTVSS', 'Kd', 7.5),
  ('3C06 anti-DLL3 trispecific protein (other, not shown: linker 1808, anti-albumin sdAb, linker 1808, anti-CD3 fragment, His6 1819) EVQLVESGGGLVQPGGSLTLSCAASGTSVSFLSIAWYRQAPGKKRELVAGISADGSTDYIASVKGRFTISRDNAKNSVYLQMNSLRAEDTAVYYCYAYRWRTRYTYWGQGTLVTVSS', 'Kd', 10),
  ('4H011 anti-DLL3 trispecific protein (other, also called 4H11; not shown: linker 1808, anti-albumin sdAb, linker 1808, anti-CD3 fragment, His6 1819) EVQLVESGGGLVQPGGSLTLSCAASGSSVSRLSMAWYRQAPGKKRELVAGISVDGSTDYIDSVKGRFTISRDNAKNSVYLQMNSLRAEDTAVYYCYAYRWTTRLTYWGQGTLVTVSS', 'Kd', 4.5),
  ('1F011 anti-DLL3 trispecific protein (other, not shown: linker 1808, anti-albumin sdAb, linker 1808, anti-CD3 fragment, His6 1819) EVQLVESGGGLVQPGGSLTLSCVASGSTSSINAIGWYRRAPGKQRELVAGISSDGSKVYADSVKGRFTISRDNAKNSVYLQMNSLRAEDTAVYYCYYFRTVKGSSMRYWGQGTLVTVSS', 'Kd', 5);
